Reference for the values: paper PMC9482650

molecular target: GRIP2_6, Q9C0E4; experiment: holdup assay; design: key: below the threshold = too weak to quantify, mostly under pKd 3.1 to 4; conditions: plain residues with an end cap or a label only (N-terminal biotin on a linker: ttds)
Sequence (Q9C0E4 648-740): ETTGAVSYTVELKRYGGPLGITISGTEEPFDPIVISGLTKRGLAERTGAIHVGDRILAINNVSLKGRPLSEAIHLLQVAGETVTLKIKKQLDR
MEASURED_PROPERTY: pKd

[[record]]
binder = "PPRQRSETQV [HPV82-E6, Q9IR59]"
measured_property = "pKd"
recorded_value = "below the threshold"

[[record]]
binder = "SGGKRKETLV [NET1, Q7Z628]"
measured_property = "pKd"
recorded_value = "below the threshold"

[[record]]
binder = "DLDEEEDTHL [PODXL, O00592]"
measured_property = "pKd"
recorded_value = "below the threshold"

[[record]]
binder = "PSRDRKETSI [RALBP1, Q15311]"
measured_property = "pKd"
recorded_value = 3.36

[[record]]
binder = "SRSRRRETAL [HPV33-E6, P06427]"
measured_property = "pKd"
recorded_value = "below the threshold"

[[record]]
binder = "GRLLGLETNV [ARHGEF26, Q96DR7]"
measured_property = "pKd"
recorded_value = "below the threshold"

[[record]]
binder = "KLVIKTETTV [RASSF6, Q6ZTQ3]"
measured_property = "pKd"
recorded_value = "below the threshold"

[[record]]
binder = "SHSSKGETAV [FZD7, O75084]"
measured_property = "pKd"
recorded_value = 3.58

[[record]]
binder = "FVETQHQTQV [FAT3, Q8TDW7]"
measured_property = "pKd"
recorded_value = "below the threshold"

[[record]]
binder = "GARVSKETPL [MAPK12, P53778]"
measured_property = "pKd"
recorded_value = "below the threshold"

[[record]]
binder = "QRPYRRESEI [KCNJ12, Q14500]"
measured_property = "pKd"
recorded_value = "below the threshold"

[[record]]
binder = "SSIDLWETAL [SLC15A5, A6NIM6]"
measured_property = "pKd"
recorded_value = "below the threshold"

[[record]]
binder = "KQVVPFSSSV [GDA, Q9Y2T3]"
measured_property = "pKd"
recorded_value = "below the threshold"

[[record]]
binder = "PFRSRSPSEV [GPR6, P46095]"
measured_property = "pKd"
recorded_value = "below the threshold"

[[record]]
binder = "NPDALPETLV [ARHGAP6, O43182]"
measured_property = "pKd"
recorded_value = "below the threshold"

